- Tested on: Streptococcus pneumoniae
- TEST_DETAILS: Minimum inhibitory concentration of the compound against 3 […] Streptococcus pneumoniae OC4421 with an mef(A) efflux-mediated resistance was determined
- Format: functional
QUANTITY: MIC (µg/mL)
Numbers only, in µg/mL.

Examples from the recorded data:
| STRUCTURE_AS_SMILES | SYSTEM | QUANTITY | OBSERVED_VALUE |
| --- | --- | --- | --- |
| CC[C@H]1OC(=O)[C@@](C)(F)C(=O)[C@H](C)[C@@H](O[C@@H]2O[C@H](C)C[C@H](N(C)C)[C@H]2O)[C@](C)(OC(=O)NC/C=C/c2ccc(-c3cccnn3)cc2)C[C@@H](C)/C(=N\O)[C@H](C)[C@H]2NC(=O)O[C@@]21C | Streptococcus pneumoniae | MIC | 0.25 |
| CC[C@H]1OC(=O)[C@@](C)(F)C(=O)[C@H](C)[C@@H](O[C@@H]2O[C@H](C)C[C@H](N(C)C)[C@H]2O)[C@](C)(OC(=O)NC/C=C/c2ccc(-c3ccncn3)cc2)C[C@@H](C)C(=O)[C@H](C)[C@H]2NC(=O)O[C@@]21C | Streptococcus pneumoniae | MIC | 0.12 |
| CC[C@H]1OC(=O)[C@@](C)(F)C(=O)[C@H](C)[C@@H](O[C@@H]2O[C@H](C)C[C@H](N(C)C)[C@H]2O)[C@](C)(OC(=O)NC/C=C/c2ccc3ncccc3c2)C[C@@H](C)C(=O)[C@H](C)[C@H]2NC(=O)O[C@@]21C | Streptococcus pneumoniae | MIC | 0.06 |

GET /values?readout=MIC&system=Streptococcus pneumoniae&item= `CC[C@H]1OC(=O)[C@@](C)(F)C(=O)[C@H](C)[C@@H](O[C@@H]2O[C@H](C)C[C@H](N(C)C)[C@H]2O)[C@](C)(OC(=O)NC/C=C/c2ccc(-c3ncccn3)o2)C[C@@H](C)C(=O)[C@H](C)[C@H]2NC(=O)O[C@@]21C`
0.5

* * *

- Tested on: Streptococcus pneumoniae
- TEST_DETAILS: Minimum inhibitory concentration of the compound against 3 […] Streptococcus pneumoniae OC4421 with an mef(A) efflux-mediated resistance was determined
- Format: functional
Please respond with reported MIC for every item in the list.
Numbers only, in µg/mL.

Known results for compounds:
| STRUCTURE_AS_SMILES | SYSTEM | MIC / µg/mL |
| --- | --- | --- |
| CC[C@H]1OC(=O)[C@@](C)(F)C(=O)[C@H](C)[C@@H](O[C@@H]2O[C@H](C)C[C@H](N(C)C)[C@H]2O)[C@](C)(OC(=O)NCc2cn(-c3ncccn3)cn2)C[C@@H](C)C(=O)[C@H](C)[C@H]2NC(=O)O[C@@]21C | Streptococcus pneumoniae | 0.5 |
| CC[C@H]1OC(=O)[C@@](C)(F)C(=O)[C@H](C)[C@@H](O[C@@H]2O[C@H](C)C[C@H](N(C)C)[C@H]2O)[C@](C)(OC(=O)NC/C=C/c2cccnc2)C[C@@H](C)/C(=N\O)[C@H](C)[C@H]2NC(=O)O[C@@]21C | Streptococcus pneumoniae | 0.5 |
| CC[C@H]1OC(=O)[C@@](C)(F)C(=O)[C@H](C)[C@@H](O[C@@H]2O[C@H](C)C[C@H](N(C)C)[C@H]2O)[C@](C)(OC(=O)NC/C=C/c2cn(-c3ncccn3)cn2)C[C@@H](C)C(=O)[C@H](C)[C@H]2NC(=O)O[C@@]21C | Streptococcus pneumoniae | 0.25 |

Now look at this entry.
What does the record list as MIC for `CC[C@H]1OC(=O)[C@@](C)(F)C(=O)[C@H](C)[C@@H](O[C@@H]2O[C@H](C)C[C@H](N(C)C)[C@H]2O)[C@](C)(OC(=O)NCCOCc2ccc(-c3ncccn3)cc2)C[C@@H](C)/C(=N\O)[C@H](C)[C@H]2NC(=O)O[C@@]21C` ?
0.25
